The reader will find reported yeast fitness values listed item by item below.
B1: tRNA (parent)
chain: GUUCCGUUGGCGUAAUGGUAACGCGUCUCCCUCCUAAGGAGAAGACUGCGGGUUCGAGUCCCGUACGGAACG

Variants of: B1
Assay: yeast fitness relative to wild type (ratio to wild type); higher = fitter; tRNA-Arg(CCU), competitive growth, 37 C, YPD
This sample holds only a part of the variants without activity.

Here are 5 variants together with their reported answers.
U26A A57C G67A A69U ... 0.58
U19A C30A A45U G50C ... 0.62
A14G U16A ... 0.886
C27U G48A C49U G67A ... 0.674
U2C C4U C33A G41C C60U A65U A69U ... ≤ 0.5

Turning now to a further record.
For record G17C C24U G41A the listed yeast fitness is ≤ 0.5
